- System Tested: PameOBP2 (Periplaneta americana)
- Protocol Summary: Competitive fluorescence binding assay (1-NPN displacement), recombinant PameOBP2
Quantity: pIC50
Numbers only, as −log10 of the molar value.

-- ask Can you share its pIC50? I mean this molecule: `CC(=O)/C=C/C1=C(C)CCCC1(C)C`
-- reply 4.82

###

- System Tested: PameOBP3 (Periplaneta americana)
- Sequence (B6E9U9 entry or part of it): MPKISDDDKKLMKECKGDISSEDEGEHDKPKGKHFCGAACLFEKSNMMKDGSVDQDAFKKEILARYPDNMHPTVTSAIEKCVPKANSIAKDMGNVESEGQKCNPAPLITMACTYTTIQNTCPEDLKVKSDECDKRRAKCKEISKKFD
Quantity: Kd (µM)
Give bare numbers, in µM.

-- ask Query the reported Kd for PameOBP3 (Periplaneta americana); item: `c1ccc(Nc2cccc3ccccc23)cc1`
-- reply 24.9

###

- System Tested: PameOBP2 (Periplaneta americana, UniProt B6E9U8)
- Sequence (B6E9U8 entry or part of it): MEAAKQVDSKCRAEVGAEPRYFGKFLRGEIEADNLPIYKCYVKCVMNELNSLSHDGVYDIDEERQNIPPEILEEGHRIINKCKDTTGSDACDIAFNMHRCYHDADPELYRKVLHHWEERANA
- Protocol Summary: Competitive fluorescence binding assay (1-NPN displacement), recombinant PameOBP2
- Condition Description: 2 μM 1-NPN as fluorescent reporter; competitor 0.25–2.5 μM or 2–40 μM; read-out: PameOBP2 IC50
Quantity: log10 of IC50 (log10 of the value in µM)
Note: values are log10 of IC50 expressed in µM.

Worked examples, 3 molecules total:
CCCCCCCCCCCC(C)=O [2-Tridecanone] ... 0.18
CC(=O)OC/C=C(\C)CCC=C(C)C [Geranyl acetate] ... 1.60
C=CC(C)(O)CCC=C(C)CCC=C(C)C (mixture of isomers) [Nerolidol] ... 1.52

Give log10 of IC50 for all molecules that follow.
1. CC(=O)CC/C=C(\C)CCC=C(C)C [Geranylacetone]
2. CC(C)=CCC/C(C)=C/CC/C(C)=C/CO [Farnesol]
3. CCCCCCCCCCCCCC [Tetradecane]
4. C=CC(C)(O)CC/C=C(\C)CCC=C(C)C (stereo not drawn) [Trans-nerolidol]

-- reply
1. 0.94
2. -0.19
3. 0.08
4. 1.19

###

- System Tested: PameOBP2 (Periplaneta americana)
Quantity: pKd
One number for each entry, as −log10 of the molar value.

-- ask // map `c1ccc(Nc2cccc3ccccc23)cc1` to recorded pKd (system: PameOBP2 (Periplaneta americana))
-- reply 5.09

###

For each record, write down the corresponding Ki.
- System Tested: PameOBP2 (Periplaneta americana, UniProt B6E9U8)
- Protocol Summary: Competitive fluorescence binding assay (1-NPN displacement), recombinant PameOBP2
- Condition Description: 2 μM 1-NPN as fluorescent reporter; competitor 0.25–2.5 μM or 2–40 μM; read-out: PameOBP2 Ki

CC(=O)CC/C=C(\C)CCC=C(C)C ... 6.97 µM

I would be grateful if you could provide Ki for each of the following entries.
1. CCCC(=O)CC
2. CC/C=C\CCOC(C)=O [cis-3-hexenyl acetate]
3. CCCCCCCCCCCCCC
4. CC/C=C\CCOC(=O)CCC [cis-3-hexenyl butyrate]
5. CCCCCCCCCCCC
6. CCCC(=O)OCC [ethyl butyrate]

-- reply
["> 40 µM", "> 40 µM", "0.96 µM", "> 40 µM", "> 40 µM", "> 40 µM"]

List reported Ki for each of these compounds:
1. CCCCCCO
2. CCOC(=O)CC [ethyl propionate]
3. CC(=O)c1ccccc1
4. CC(=O)OCc1ccccc1 [benzyl acetate]
5. CCCCCCCCCCCC(C)=O
6. C=C1C2CCC(C2)C1(C)C (stereo not shown)
7. C=CC(C)(O)CC/C=C(\C)CCC=C(C)C (stereo not drawn) [Trans-nerolidol]
8. CC(=O)OCCC(C)C [isoamyl acetate]

-- reply
1. > 40 µM
2. > 40 µM
3. > 40 µM
4. > 40 µM
5. 1.23 µM
6. > 40 µM
7. 12.6 µM
8. > 40 µM

For each of the compounds below, state Ki.
1. CC(=O)OC/C=C(\C)CCC=C(C)C [Geranyl acetate]
2. CCCCCCCCCCC

-- reply
1: 32.6 µM; 2: > 40 µM

State recorded Ki for all listed compounds.
1. CCCCCCOC(=O)CCC [hexyl butyrate]
2. CCCCCCCCCC=O
3. CCCCCOC(C)=O [pentyl acetate]
4. CCCCCCCCCCC=O
5. C=CC(C)(O)CCC=C(C)CCC=C(C)C (mixture of isomers)

-- reply
1: > 40 µM; 2: > 40 µM; 3: > 40 µM; 4: > 40 µM; 5: 26.6 µM

Can you give me Ki for all of these, one by one?
1. CCC/C=C/COC(C)=O [trans-2-hexenyl acetate]
2. CCCCCCCCC(CO)CCCCCC (stereo not shown)
3. CCCCCCCCOC(C)=O [octyl acetate]
4. OCCc1ccccc1
5. CC/C=C\CCOC(=O)CCCCC [Cis-3-hexenyl hexanoate]
6. CCCCCC(C)O (stereo not shown)

-- reply
> 40 µM
> 40 µM
> 40 µM
> 40 µM
> 40 µM
> 40 µM

###

- System Tested: PameOBP1 (Periplaneta americana, UniProt B6E9U7)
- Sequence (B6E9U7 entry or part of it): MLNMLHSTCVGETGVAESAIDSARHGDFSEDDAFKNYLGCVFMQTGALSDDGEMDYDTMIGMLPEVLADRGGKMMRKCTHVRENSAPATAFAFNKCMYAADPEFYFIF
Quantity: pKd
Give bare numbers, as −log10 of the molar value.

-- ask Provide value of pKd for this record tested with PameOBP1 (Periplaneta americana, UniProt B6E9U7): c1ccc(Nc2cccc3ccccc23)cc1 [1-NPN, N-phenyl-1-naphtylamine]
-- reply 4.69

###

- System Tested: PameOBP1 (Periplaneta americana, UniProt B6E9U7)
- Protocol Summary: Competitive fluorescence binding assay (1-NPN displacement), recombinant PameOBP1
- Condition Description: 2 μM 1-NPN as fluorescent reporter; competitor 0.25–2.5 μM or 2–40 μM; read-out: PameOBP1 Ki
Structures can show the parent of a compound that is named as a salt.
Quantity: Ki

CCCCCCCCC(CO)CCCCCC (stereo not drawn) ... > 40 µM

Batch request: Ki per item, same order as input.
1. CCCCCCCOC(C)=O [heptyl acetate]
2. C=CC(C)(O)CCC=C(C)CCC=C(C)C (mixture of isomers)
3. CCOC(=O)CC [ethyl propionate]
4. CCCCOC=O [butyl formate]
5. CCCCCCCCCCCC(C)=O
6. CC(=O)c1ccccc1
7. CCCCCCCCOC(C)=O [octyl acetate]

-- reply
1: > 40 µM; 2: > 40 µM; 3: > 40 µM; 4: > 40 µM; 5: 1.85 µM; 6: > 40 µM; 7: > 40 µM

# map each compound to its Ki
1. CCC/C=C/COC(C)=O [trans-2-hexenyl acetate]
2. CC(C)=CCC/C(C)=C/CC/C(C)=C/CO
3. CCCC(O)CC (stereo not drawn)
4. C=CC(C)(O)CC/C=C(\C)CCC=C(C)C (stereo not drawn) [Trans-nerolidol]

-- reply
1. > 40 µM
2. 0.92 µM
3. > 40 µM
4. > 40 µM

###

- System Tested: PameOBP1 (Periplaneta americana)
- Protocol Summary: Competitive fluorescence binding assay (1-NPN displacement), recombinant PameOBP1
Quantity: IC50
Just so you know, I need the unit written after the number.

-- ask Name the recorded IC50 for `CC(=O)/C=C/C1=C(C)CCCC1(C)C` .
-- reply 15.8 µM
